# Test system: NCI-H23
# Assay: NCI tumour cell line growth inhibition, 48 h
Activity calls are given as the source filed them. No stated cut-off is given here; in the data, active = GI50 up to about 1.1 µM and inactive = higher.
Your response should consist of one outcome taken from y (active), n (inactive)

Below are worked cases with known answers.
Problem: So what was the verdict on C=C(Cl)C(Br)(CCl)CCC(Br)C(C)(C)Cl (stereo not given) in this test?
Result: n

Problem: So what was the verdict on O=c1c2ccccc2n2n1Cc1ccccc1C2 in this test?
Result: n

Problem: So what was the verdict on Oc1ccc2ccccc2c1OCc1nnc(CCCCCCCCc2nnc(COc3c(O)ccc4ccccc34)o2)o1 in this test?
Result: n

Problem: So what was the verdict on CC1=NN(C(=O)CC(=O)Nc2cccc(C)c2)C(=O)C1/N=N/c1ccc(S(=O)(=O)CCOS(=O)(=O)O)cc1 (stereo not given) in this test?
Result: y

// switching to the query compound
Problem: So what was the verdict on COc1nc(N)c(N=O)c(OCc2ccccc2)n1 in this test?
Result: n

Where do the numbers come from? From ChEMBL document CHEMBL1201862.
